src = ChEMBL document CHEMBL3600378

We begin with a simple list: items and their reported pEC50.
# test.system: Beta-3 adrenergic receptor (Homo sapiens, UniProt P13945)
# protocol.notes: Agonist activity at human recombinant beta3-adrenergic receptor expressed in CHO cells assessed as increase of cAMP level after 30 mins
# Sequence (P13945 whole entry): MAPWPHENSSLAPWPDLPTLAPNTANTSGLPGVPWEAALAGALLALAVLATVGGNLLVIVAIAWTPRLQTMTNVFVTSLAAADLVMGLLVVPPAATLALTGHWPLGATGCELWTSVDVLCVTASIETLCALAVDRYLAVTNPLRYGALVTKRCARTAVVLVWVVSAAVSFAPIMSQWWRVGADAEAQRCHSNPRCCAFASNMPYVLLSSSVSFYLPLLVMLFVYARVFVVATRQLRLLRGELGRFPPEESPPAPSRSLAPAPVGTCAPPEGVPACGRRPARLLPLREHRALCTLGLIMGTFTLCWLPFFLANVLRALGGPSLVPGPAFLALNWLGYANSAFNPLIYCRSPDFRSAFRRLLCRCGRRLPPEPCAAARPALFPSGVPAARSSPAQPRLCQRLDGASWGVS
The scale used: pEC50 is minus the common logarithm of the concentration in molar units.

{"smiles.text": "CS(=O)(=O)Nc1cccc([C@@H](O)CNCCOc2ccc3c(C4CC4)n[nH]c3c2)c1", "test.system": "Beta-3 adrenergic receptor (Homo sapiens, UniProt P13945)", "pEC50": 7.77}
{"smiles.text": "CS(=O)(=O)Nc1cccc([C@@H](O)CNCCOc2ccc3c(CO)n[nH]c3c2)c1", "test.system": "Beta-3 adrenergic receptor (Homo sapiens, UniProt P13945)", "pEC50": 6.95}
{"smiles.text": "CCc1n[nH]c2cc(OCCNC[C@H](O)c3cccc(NS(C)(=O)=O)c3)ccc12", "test.system": "Beta-3 adrenergic receptor (Homo sapiens, UniProt P13945)", "pEC50": 7.85}
{"smiles.text": "CC(C)(C)c1n[nH]c2cc(OCCNC[C@H](O)c3cccc(NS(C)(=O)=O)c3)ccc12", "test.system": "Beta-3 adrenergic receptor (Homo sapiens, UniProt P13945)", "pEC50": 6.47}
{"smiles.text": "CS(=O)(=O)Nc1cccc([C@@H](O)CNCCOc2ccc3c(Cl)n[nH]c3c2)c1", "test.system": "Beta-3 adrenergic receptor (Homo sapiens, UniProt P13945)", "pEC50": 7.37}

Okay, next one:
The reported pEC50 of the molecule CC(C)c1n[nH]c2cc(OCCNC[C@H](O)c3cccc(NS(C)(=O)=O)c3)ccc12 was 7.89

* * *

# Tested on: Rattus norvegicus
# protocol.notes: Cardiotoxicity in anesthetized Sprague-Dawley rat assessed as increase in mean blood pressure at 3 mg/kg, iv measured for 30 mins relative to control
# Format: toxicity, organism-based
# measurement.context: in vivo, 0.5 h
observed.property: Activity (%)
Give the number; % is assumed, so skip it.

{"smiles.text": "Cc1n[nH]c2cc(OCCNC[C@H](O)c3cccc(NS(C)(=O)=O)c3)ccc12", "unit.tag": "%", "Activity": 24.2}
{"smiles.text": "CC(C)c1n[nH]c2cc(OCCNC[C@H](O)c3cccc(NS(C)(=O)=O)c3)ccc12", "unit.tag": "%", "Activity": 4.7}
{"smiles.text": "CCc1n[nH]c2cc(OCCNC[C@H](O)c3cccc(NS(C)(=O)=O)c3)ccc12", "unit.tag": "%", "Activity": 3.1}
{"smiles.text": "CS(=O)(=O)Nc1cccc([C@@H](O)CNCCOc2ccc3c(C4CC4)n[nH]c3c2)c1", "unit.tag": "%", "Activity": 2.7}

The reported Activity of the compound Nc1nc(CC(=O)Nc2ccc(CCNC[C@H](O)c3ccccc3)cc2)cs1 was 3.5

* * *

# System: Rattus norvegicus
# protocol.notes: Cardiotoxicity in anesthetized Sprague-Dawley rat assessed as increase in heart rate at 3 mg/kg, iv measured for 30 mins relative to control
# Assay type: toxicity, organism-based
# measurement.context: in vivo, 0.5 h
We begin with a simple list: items and their reported Activity.
Give the number; % is assumed, so skip it.

{"smiles.text": "Cc1n[nH]c2cc(OCCNC[C@H](O)c3cccc(NS(C)(=O)=O)c3)ccc12", "test.system": "Rattus norvegicus", "observed.property": "Activity", "measurement": 7.9}
{"smiles.text": "CS(=O)(=O)Nc1cccc([C@@H](O)CNCCOc2ccc3c(C4CC4)n[nH]c3c2)c1", "test.system": "Rattus norvegicus", "observed.property": "Activity", "measurement": 5.7}
{"smiles.text": "CC(C)c1n[nH]c2cc(OCCNC[C@H](O)c3cccc(NS(C)(=O)=O)c3)ccc12", "test.system": "Rattus norvegicus", "observed.property": "Activity", "measurement": 3.3}
{"smiles.text": "Nc1nc(CC(=O)Nc2ccc(CCNC[C@H](O)c3ccccc3)cc2)cs1", "test.system": "Rattus norvegicus", "observed.property": "Activity", "measurement": 10}

Okay, next one:
The reported Activity of the compound CCc1n[nH]c2cc(OCCNC[C@H](O)c3cccc(NS(C)(=O)=O)c3)ccc12 was 9.6

* * *

# test.system: Beta-3 adrenergic receptor (Rattus norvegicus)
# Sequence (P26255 whole entry): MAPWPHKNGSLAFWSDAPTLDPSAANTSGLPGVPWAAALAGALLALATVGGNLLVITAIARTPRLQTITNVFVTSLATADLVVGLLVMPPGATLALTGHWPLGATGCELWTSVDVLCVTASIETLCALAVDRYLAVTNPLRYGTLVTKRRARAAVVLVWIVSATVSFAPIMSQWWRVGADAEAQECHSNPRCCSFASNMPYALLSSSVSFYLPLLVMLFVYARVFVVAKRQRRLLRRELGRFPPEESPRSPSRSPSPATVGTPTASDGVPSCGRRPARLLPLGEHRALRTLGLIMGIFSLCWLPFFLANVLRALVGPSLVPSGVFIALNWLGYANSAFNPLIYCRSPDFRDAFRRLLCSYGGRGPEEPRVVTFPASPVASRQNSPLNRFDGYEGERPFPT
# protocol.notes: Agonist activity at rat beta3-adrenergic receptor
observed.property: EC50

The reported EC50 of the molecule CC(C)c1n[nH]c2cc(OCCNC[C@H](O)c3cccc(NS(C)(=O)=O)c3)ccc12 was 535 nM

* * *

# test.system: Alpha-1A adrenergic receptor (Homo sapiens)
# Sequence (P35348 whole entry): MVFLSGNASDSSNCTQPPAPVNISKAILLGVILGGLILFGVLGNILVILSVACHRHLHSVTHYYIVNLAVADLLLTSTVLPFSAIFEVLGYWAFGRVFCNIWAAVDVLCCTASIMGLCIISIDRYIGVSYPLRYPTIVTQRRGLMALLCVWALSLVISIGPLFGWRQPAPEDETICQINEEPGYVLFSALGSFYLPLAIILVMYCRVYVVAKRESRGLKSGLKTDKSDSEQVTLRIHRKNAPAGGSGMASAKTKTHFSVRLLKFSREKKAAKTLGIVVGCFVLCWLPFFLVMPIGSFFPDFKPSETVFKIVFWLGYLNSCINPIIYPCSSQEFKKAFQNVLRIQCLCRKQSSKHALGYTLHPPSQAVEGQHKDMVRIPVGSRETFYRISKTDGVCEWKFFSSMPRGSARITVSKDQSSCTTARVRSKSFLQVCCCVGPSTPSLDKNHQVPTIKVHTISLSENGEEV
# protocol.notes: Agonist activity at human alpha1A-adrenergic receptor expressed in HEK293 cells assessed as calcium flux by fluorescence assay
observed.property: log10(EC50) (log10 of the value in nM)
The common logarithm of EC50 in nM is what is listed.

// solved cases for log10(EC50) follow
{"smiles.text": "CCOc1n[nH]c2cc(OCCNC[C@H](O)c3cccc(NS(C)(=O)=O)c3)ccc12", "log10(EC50)": 2.44}
{"smiles.text": "CS(=O)(=O)Nc1cccc([C@@H](O)CNCCOc2ccc3c(Cl)n[nH]c3c2)c1", "log10(EC50)": 1.79}

The reported log10(EC50) of the molecule COc1n[nH]c2cc(OCCNC[C@H](O)c3cccc(NS(C)(=O)=O)c3)ccc12 was 2.40

The reported log10(EC50) of the molecule Cc1n[nH]c2cc(OCCNC[C@H](O)c3cccc(NS(C)(=O)=O)c3)ccc12 was 2.34

The reported log10(EC50) of the molecule CS(=O)(=O)Nc1cccc([C@@H](O)CNCCOc2ccc3c(CO)n[nH]c3c2)c1 was 1.52

The reported log10(EC50) of the molecule CS(=O)(=O)Nc1cccc([C@@H](O)CNCCOc2ccc3c(C4CC4)n[nH]c3c2)c1 was 3.19

The reported log10(EC50) of the molecule CS(=O)(=O)Nc1cccc([C@@H](O)CNCCOc2ccc3c(C(F)(F)F)n[nH]c3c2)c1 was 2.91

* * *

# test.system: UniProtKB P18089
# Sequence (P18089 whole entry): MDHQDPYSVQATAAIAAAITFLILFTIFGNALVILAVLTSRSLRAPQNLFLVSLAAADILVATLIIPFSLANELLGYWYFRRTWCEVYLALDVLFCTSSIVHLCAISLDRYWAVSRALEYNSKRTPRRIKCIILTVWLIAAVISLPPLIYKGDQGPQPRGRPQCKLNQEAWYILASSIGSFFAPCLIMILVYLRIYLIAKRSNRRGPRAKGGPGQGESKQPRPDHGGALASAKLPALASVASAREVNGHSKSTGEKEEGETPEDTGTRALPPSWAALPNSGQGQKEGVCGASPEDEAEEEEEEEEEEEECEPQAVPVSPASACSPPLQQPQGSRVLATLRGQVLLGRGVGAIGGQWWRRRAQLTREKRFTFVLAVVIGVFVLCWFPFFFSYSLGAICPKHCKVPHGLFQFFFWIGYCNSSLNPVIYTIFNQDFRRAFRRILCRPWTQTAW
# protocol.notes: Agonist activity at human alpha2B-adrenergic receptor
observed.property: EC50

// assay UniProtKB P18089, entry Cc1n[nH]c2cc(OCCNC[C@H](O)c3cccc(NS(C)(=O)=O)c3)ccc12 , EC50 value = > 10 µM

* * *

# test.system: Beta-3 adrenergic receptor (Homo sapiens, UniProt P13945)
# protocol.notes: Intrinsic activity at human beta3-adrenergic receptor expressed in CHO cells assessed as increase of cAMP level after 30 mins relative to isoproterenol
# Format: functional, cell-based
# Sequence (P13945 whole entry, looked up): as the sequence (P13945 whole entry) above
observed.property: Intrinsic activity (%)
Give the number; % is assumed, so skip it.

// solved cases for Intrinsic activity follow
{"smiles.text": "CS(=O)(=O)Nc1cccc([C@@H](O)CNCCOc2ccc3c(C4CC4)n[nH]c3c2)c1", "test.system": "Beta-3 adrenergic receptor (Homo sapiens, UniProt P13945)", "observed.property": "Intrinsic activity", "measurement": 72}
{"smiles.text": "Cc1n[nH]c2cc(OCCNC[C@H](O)c3cccc(NS(C)(=O)=O)c3)ccc12", "test.system": "Beta-3 adrenergic receptor (Homo sapiens, UniProt P13945)", "observed.property": "Intrinsic activity", "measurement": 82}
{"smiles.text": "CCc1n[nH]c2cc(OCCNC[C@H](O)c3cccc(NS(C)(=O)=O)c3)ccc12", "test.system": "Beta-3 adrenergic receptor (Homo sapiens, UniProt P13945)", "observed.property": "Intrinsic activity", "measurement": 78}
{"smiles.text": "COc1n[nH]c2cc(OCCNC[C@H](O)c3cccc(NS(C)(=O)=O)c3)ccc12", "test.system": "Beta-3 adrenergic receptor (Homo sapiens, UniProt P13945)", "observed.property": "Intrinsic activity", "measurement": 70}
{"smiles.text": "CC(C)c1n[nH]c2cc(OCCNC[C@H](O)c3cccc(NS(C)(=O)=O)c3)ccc12", "test.system": "Beta-3 adrenergic receptor (Homo sapiens, UniProt P13945)", "observed.property": "Intrinsic activity", "measurement": 69}

Okay, next one:
// assay Beta-3 adrenergic receptor (Homo sapiens, UniProt P13945), entry CCOc1n[nH]c2cc(OCCNC[C@H](O)c3cccc(NS(C)(=O)=O)c3)ccc12 , Intrinsic activity value = 69

* * *

# Organism: Homo sapiens
# protocol.notes: Selectivity ratio of EC50 for human alpha1A-adrenergic receptor to EC50 for human beta3-adrenergic receptor
observed.property: Ratio EC50
Enter the number alone.

{"smiles.text": "CS(=O)(=O)Nc1cccc([C@@H](O)CNCCOc2ccc3c(C4CC4)n[nH]c3c2)c1", "measurement": 91}
{"smiles.text": "CS(=O)(=O)Nc1cccc([C@@H](O)CNCCOc2ccc3c(C(F)(F)F)n[nH]c3c2)c1", "measurement": 13}
{"smiles.text": "CCOc1n[nH]c2cc(OCCNC[C@H](O)c3cccc(NS(C)(=O)=O)c3)ccc12", "measurement": 3.9}
{"smiles.text": "CS(=O)(=O)Nc1cccc([C@@H](O)CNCCOc2ccc3c(Cl)n[nH]c3c2)c1", "measurement": 1.4}

The reported Ratio EC50 of the molecule CCc1n[nH]c2cc(OCCNC[C@H](O)c3cccc(NS(C)(=O)=O)c3)ccc12 was 61

The reported Ratio EC50 of the molecule COc1n[nH]c2cc(OCCNC[C@H](O)c3cccc(NS(C)(=O)=O)c3)ccc12 was 6.3

The reported Ratio EC50 of the molecule Cc1n[nH]c2cc(OCCNC[C@H](O)c3cccc(NS(C)(=O)=O)c3)ccc12 was 10
